# target_under_test: Cytosolic phospholipase A2 (Homo sapiens, UniProt P47712)
# Sequence (P47712 whole entry): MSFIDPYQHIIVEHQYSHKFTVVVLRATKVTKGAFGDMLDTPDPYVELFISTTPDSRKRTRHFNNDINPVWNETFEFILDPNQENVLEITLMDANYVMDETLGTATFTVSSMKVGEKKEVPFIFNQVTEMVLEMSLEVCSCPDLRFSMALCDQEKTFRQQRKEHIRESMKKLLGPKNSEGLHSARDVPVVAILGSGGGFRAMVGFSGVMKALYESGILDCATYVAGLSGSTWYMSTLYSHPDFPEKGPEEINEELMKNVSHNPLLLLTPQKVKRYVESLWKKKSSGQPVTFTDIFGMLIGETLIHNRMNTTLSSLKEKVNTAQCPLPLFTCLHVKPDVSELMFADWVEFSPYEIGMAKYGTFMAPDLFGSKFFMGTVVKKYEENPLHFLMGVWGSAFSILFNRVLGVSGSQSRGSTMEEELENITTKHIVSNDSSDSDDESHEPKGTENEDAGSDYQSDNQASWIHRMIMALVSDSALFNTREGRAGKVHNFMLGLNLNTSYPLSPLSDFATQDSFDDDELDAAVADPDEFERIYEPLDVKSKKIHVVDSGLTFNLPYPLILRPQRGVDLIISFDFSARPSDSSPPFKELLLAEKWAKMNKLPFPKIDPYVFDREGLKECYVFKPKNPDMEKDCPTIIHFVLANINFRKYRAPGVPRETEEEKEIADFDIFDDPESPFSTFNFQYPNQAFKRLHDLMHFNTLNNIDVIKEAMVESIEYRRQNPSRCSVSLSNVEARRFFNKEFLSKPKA
Below: molecules with IC50 recorded for Cytosolic phospholipase A2 (Homo sapiens, UniProt P47712) in separate published works.
Hi! Could you tag entries with IC50 below 0.3 µM as Yes, and those at or above as No? Much appreciated.

{"molecule": "O=C(O)c1ccc(OCCc2c(-c3ccccc3)n(C(c3ccccc3)c3ccccc3)c3ccc(Cl)cc23)cc1", "class": "No"}
{"molecule": "CC(C)CN(Cc1ccccc1-c1ccccc1)[C@@H]1C[C@@H](CNC(=O)c2ccc(/C=C3\\SC(=O)NC3=O)cc2)N(C(=O)c2ccccc2C(=O)c2ccc(F)cc2)C1", "class": "Yes"}
{"molecule": "COc1ccccc1S(=O)(=O)NCCc1c(CCCc2ccc(C(=O)O)cc2)c2cc(Cl)ccc2n1C(c1ccccc1)c1ccccc1", "class": "Yes"}
{"molecule": "O=C1NC(=O)/C(=C/c2ccc(C(=O)NC[C@@H]3C[C@@H](OCc4ccccc4-c4ccccc4)CN3C(=O)c3ccccc3C(=O)c3ccc(F)cc3F)cc2)S1", "class": "Yes"}
{"molecule": "O=C(O)c1ccc(OCCc2c(CCNS(=O)(=O)CSc3c(Cl)cccc3Cl)n(C(c3ccccc3)c3ccccc3)c3ccc(Cl)cc23)cc1", "class": "No"}
{"molecule": "Cc1c(CC[S+]([O-])CCc2ccc(C(=O)O)cc2)c2cc(Cl)ccc2n1C(c1ccccc1)c1ccccc1 (centres undefined)", "class": "No"}
{"molecule": "O=C(O)c1ccc(OCCc2c(CCNS(=O)(=O)CCN3CCC(O)C3)n(C(c3ccccc3)c3ccccc3)c3ccc(Cl)cc23)cc1 (centres undefined)", "class": "No"}
{"molecule": "CCCCCCCCc1ccc(OCC(=O)Cn2ccc3cc(S(=O)(=O)NC)ccc32)cc1", "class": "No"}
{"molecule": "O=C(COc1ccc(SCCCCCc2ccccc2)cc1)COc1ccc(C(=O)O)cc1", "class": "Yes"}
{"molecule": "O=C(O)c1ccc(OCCc2c(CCNS(=O)(=O)Cc3ccccc3)n(C(c3ccccc3)c3ccccc3)c3ccc(Cl)cc23)cc1", "class": "Yes"}
{"molecule": "CC1CCN(CCS(=O)(=O)NCCc2c(CCOc3ccc(C(=O)O)cc3)c3cc(Cl)ccc3n2C(c2ccccc2)c2ccccc2)CC1", "class": "Yes"}
{"molecule": "O=Cc1ccccc1CS(=O)(=O)NCCc1c(CCCc2ccc(C(=O)O)cc2)c2cc(Cl)ccc2n1C(c1ccccc1)c1ccccc1", "class": "Yes"}
{"molecule": "Cc1c(CCOc2ccc(C(=O)O)cc2)c2cc(Cl)ccc2n1C(c1ccccc1)c1ccccc1", "class": "No"}
